test_method_notes: Stability in buffers pH 1.20, 7.40 and 9.20 (Examples 26 and 27)
run_parameters: buffer pH 7.4
Structures can show the parent of a compound that is named as a salt.
As shown below, each of these compounds has a reported % remaining after 30 min value.
A number alone suffices; assume %.

Some solved entries appear below for comparison.
• NC(CC(=O)O)C(=O)OCn1c(=O)n(Cc2ccc(Cl)cc2)s/c1=N/C(=O)c1ccc(Cl)cc1 (stereo not shown) [Compound 17, Trifluoroacetate] = 0
• NCC(=O)OCn1c(=O)n(Cc2ccc(Cl)cc2)s/c1=N\C(=O)c1ccc(Cl)cc1 [Compound 9, Trifluoroacetate] = 13
• CN(C)CC(=O)OCn1c(=O)n(Cc2ccc(Cl)cc2)s/c1=N\C(=O)c1ccc(Cl)cc1 [Compound 3] = 16

// moving on: another record for % remaining after 30 min
Please fill in: % remaining after 30 min reported for NCCCCC(N)C(=O)OCN1C(=O)N(Cc2ccc(Cl)cc2)SC1NC(=O)c1ccc(Cl)cc1.O=C(O)C(F)(F)F.O=C(O)C(F)(F)F (stereo not shown) [Compound 6] = 33

###

As shown below, each of these molecules has a reported % remaining after 15 min value.
test_method_notes: Stability in buffers pH 1.20, 7.40 and 9.20 (Examples 26 and 27)
run_parameters: buffer pH 7.4
Where a name gives a salt, the structure may show the parent alone.
Be sure to follow the number with its unit.

Some solved entries appear below for comparison.
- NCC(=O)OCn1c(=O)n(Cc2ccc(Cl)cc2)s/c1=N\C(=O)c1ccc(Cl)cc1 [Compound 9, Trifluoroacetate]: 46%
- CN(C)CC(=O)OCn1c(=O)n(Cc2ccc(Cl)cc2)s/c1=N\C(=O)c1ccc(Cl)cc1: 46%
- NC(CC(=O)O)C(=O)OCn1c(=O)n(Cc2ccc(Cl)cc2)s/c1=N/C(=O)c1ccc(Cl)cc1 (stereo not shown) [Compound 17, Trifluoroacetate]: 0%

Please fill in: % remaining after 15 min reported for NCCCCC(N)C(=O)OCN1C(=O)N(Cc2ccc(Cl)cc2)SC1NC(=O)c1ccc(Cl)cc1.O=C(O)C(F)(F)F.O=C(O)C(F)(F)F (stereo not shown) = 33%

###

As shown below, each of these compounds has a reported % remaining after 30 min value.
test_method_notes: Stability in buffers pH 1.20, 7.40 and 9.20 (Examples 26 and 27)
run_parameters: buffer pH 1.2
Where a name gives a salt, the structure may show the parent alone.
A number alone suffices; assume %.

Some solved entries appear below for comparison.
• NCC(=O)OCn1c(=O)n(Cc2ccc(Cl)cc2)s/c1=N\C(=O)c1ccc(Cl)cc1 [Compound 9, Trifluoroacetate] = 100
• CN(C)CC(=O)OCn1c(=O)n(Cc2ccc(Cl)cc2)s/c1=N\C(=O)c1ccc(Cl)cc1 [Compound 3] = 83
• NC(CC(=O)O)C(=O)OCn1c(=O)n(Cc2ccc(Cl)cc2)s/c1=N/C(=O)c1ccc(Cl)cc1 (stereo not shown) [Compound 17, Trifluoroacetate] = 82

// moving on: another record for % remaining after 30 min
Please fill in: % remaining after 30 min reported for NCCCCC(N)C(=O)OCN1C(=O)N(Cc2ccc(Cl)cc2)SC1NC(=O)c1ccc(Cl)cc1.O=C(O)C(F)(F)F.O=C(O)C(F)(F)F (stereo not shown) [Compound 6] = 86

###

test_method_notes: Stability in buffers pH 1.20, 7.40 and 9.20 (Examples 26 and 27)
run_parameters: buffer pH 1.2
Structures can show the parent of a compound that is named as a salt.
As shown below, each of these molecules has a reported % remaining after 15 min value.
A number alone suffices; assume %.

Some solved entries appear below for comparison.
- NCC(=O)OCn1c(=O)n(Cc2ccc(Cl)cc2)s/c1=N\C(=O)c1ccc(Cl)cc1 [Compound 9, Trifluoroacetate]: 100
- CN(C)CC(=O)OCn1c(=O)n(Cc2ccc(Cl)cc2)s/c1=N\C(=O)c1ccc(Cl)cc1: 97
- NCCCCC(N)C(=O)OCN1C(=O)N(Cc2ccc(Cl)cc2)SC1NC(=O)c1ccc(Cl)cc1.O=C(O)C(F)(F)F.O=C(O)C(F)(F)F (stereo not shown): 83

// moving on: another record for % remaining after 15 min
Please fill in: % remaining after 15 min reported for NC(CC(=O)O)C(=O)OCn1c(=O)n(Cc2ccc(Cl)cc2)s/c1=N/C(=O)c1ccc(Cl)cc1 (stereo not shown) [Compound 17, Trifluoroacetate] = 76
